Target: Mycobacterium thermoresistible (Mtr) LpqY (Mycolicibacterium thermoresistibile, UniProt G7CES0)
Sequence (G7CES0 29-471): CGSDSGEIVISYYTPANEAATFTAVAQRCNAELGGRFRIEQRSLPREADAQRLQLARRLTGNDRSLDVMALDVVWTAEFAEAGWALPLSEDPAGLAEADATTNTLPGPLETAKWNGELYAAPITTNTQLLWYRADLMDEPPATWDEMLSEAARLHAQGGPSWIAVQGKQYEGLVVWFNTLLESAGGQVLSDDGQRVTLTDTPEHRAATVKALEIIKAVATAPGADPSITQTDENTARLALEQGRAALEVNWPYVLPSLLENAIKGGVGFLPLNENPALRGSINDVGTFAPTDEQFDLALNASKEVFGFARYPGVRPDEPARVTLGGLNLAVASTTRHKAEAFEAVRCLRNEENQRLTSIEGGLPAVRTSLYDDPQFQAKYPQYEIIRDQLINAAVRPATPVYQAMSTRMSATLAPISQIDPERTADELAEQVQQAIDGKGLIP
Format: binding
Conditions: single dose MST screen against LpqY
attribute_measured: Pathogen Box screen signal/noise ratio
One number for each entry.

Worked set:
OCCc1ccc(Nc2nccc(-c3nnc4ccccn34)n2)cc1
1.5
Cn1c(=O)c2c(S(C)(=O)=O)snc2n(C)c1=O
0.0729
Cc1cc(C)nc(-n2nc(C)cc2Nc2ccccc2)n1
0.8
Cc1cc(Nc2ccc(C(F)(F)F)cc2)n2ccnc2n1
0.2
O=C1O[C@@H](COc2ccon2)CN1c1cc(F)c(C2=CCN(Cc3ccccc3)CC2)c(F)c1
1.0

# batch size: 7; output Pathogen Box screen signal/noise ratio per entry
1. Cc1cc(C)c2cc(C(=O)NC3CCCCCCC3)[nH]c2c1
2. CC(C)(C)c1ccc(N[C@@H]2CCCC[C@H]2NC(=O)c2ccco2)cc1
3. c1cc(C2=NCCN2)cc(-c2cc(-c3ccc(C4=NCCN4)cc3)no2)c1
4. Cc1cccnc1NC(=O)c1cccc(OCc2c(C)noc2C)c1
5. N=C(N)Nc1ccc(-c2ccc(-c3ccc(NC(=N)N)cc3Cl)o2)c(Cl)c1
6. COc1cc2ncnc(NC3CCN(Cc4ccccc4)CC3)c2cc1OC
7. COc1cccc(OCC(=O)c2ccc(Br)cc2)c1

Output:
1.1
0.3
0.271
0.4
2.0
4.3
-0.0278

# batch size: 7; output Pathogen Box screen signal/noise ratio per entry
1. Cc1ccc2cc(C3NC(=O)c4ccccc4N3)c(Cl)nc2c1 (stereo not shown)
2. Nc1ncnc2c1c(Cc1cccc3ccccc13)nn2CC1CCNCC1
3. CN1CCC(c2cc(-c3ccncc3)c(-c3ccc(F)cc3)[nH]2)CC1
4. Cc1cc(NCC(C)C)c2n[nH]c(-c3ccccc3)c2n1
5. COc1ccc(-c2nn(C(C)C)c3ncnc(N)c23)cc1OC
6. CO[C@H]1/C=C/O[C@@]2(C)Oc3c(C)c(O)c4c(O)c(/c(=C/NN5CCN(C)CC5)c(O)c4c3C2=O)=N\C(=O)/C(C)=C\C=C/[C@H](C)[C@H](O)[C@@H](C)[C@@H](O)[C@@H](C)[C@H](OC(C)=O)[C@@H]1C
7. COc1cccc2c(C)nc(N=C(N)N)nc12

Output:
1. 0.7
2. 0.0
3. 1.2
4. 0.9
5. 0.75
6. 1.1
7. 1.1
